Target: RyR1 (Oryctolagus cuniculus, UniProt P11716)
Construct: from tissue; host or cells: rabbit skeletal muscle sarcoplasmic reticulum microsomes
Sequence (P11716 whole entry): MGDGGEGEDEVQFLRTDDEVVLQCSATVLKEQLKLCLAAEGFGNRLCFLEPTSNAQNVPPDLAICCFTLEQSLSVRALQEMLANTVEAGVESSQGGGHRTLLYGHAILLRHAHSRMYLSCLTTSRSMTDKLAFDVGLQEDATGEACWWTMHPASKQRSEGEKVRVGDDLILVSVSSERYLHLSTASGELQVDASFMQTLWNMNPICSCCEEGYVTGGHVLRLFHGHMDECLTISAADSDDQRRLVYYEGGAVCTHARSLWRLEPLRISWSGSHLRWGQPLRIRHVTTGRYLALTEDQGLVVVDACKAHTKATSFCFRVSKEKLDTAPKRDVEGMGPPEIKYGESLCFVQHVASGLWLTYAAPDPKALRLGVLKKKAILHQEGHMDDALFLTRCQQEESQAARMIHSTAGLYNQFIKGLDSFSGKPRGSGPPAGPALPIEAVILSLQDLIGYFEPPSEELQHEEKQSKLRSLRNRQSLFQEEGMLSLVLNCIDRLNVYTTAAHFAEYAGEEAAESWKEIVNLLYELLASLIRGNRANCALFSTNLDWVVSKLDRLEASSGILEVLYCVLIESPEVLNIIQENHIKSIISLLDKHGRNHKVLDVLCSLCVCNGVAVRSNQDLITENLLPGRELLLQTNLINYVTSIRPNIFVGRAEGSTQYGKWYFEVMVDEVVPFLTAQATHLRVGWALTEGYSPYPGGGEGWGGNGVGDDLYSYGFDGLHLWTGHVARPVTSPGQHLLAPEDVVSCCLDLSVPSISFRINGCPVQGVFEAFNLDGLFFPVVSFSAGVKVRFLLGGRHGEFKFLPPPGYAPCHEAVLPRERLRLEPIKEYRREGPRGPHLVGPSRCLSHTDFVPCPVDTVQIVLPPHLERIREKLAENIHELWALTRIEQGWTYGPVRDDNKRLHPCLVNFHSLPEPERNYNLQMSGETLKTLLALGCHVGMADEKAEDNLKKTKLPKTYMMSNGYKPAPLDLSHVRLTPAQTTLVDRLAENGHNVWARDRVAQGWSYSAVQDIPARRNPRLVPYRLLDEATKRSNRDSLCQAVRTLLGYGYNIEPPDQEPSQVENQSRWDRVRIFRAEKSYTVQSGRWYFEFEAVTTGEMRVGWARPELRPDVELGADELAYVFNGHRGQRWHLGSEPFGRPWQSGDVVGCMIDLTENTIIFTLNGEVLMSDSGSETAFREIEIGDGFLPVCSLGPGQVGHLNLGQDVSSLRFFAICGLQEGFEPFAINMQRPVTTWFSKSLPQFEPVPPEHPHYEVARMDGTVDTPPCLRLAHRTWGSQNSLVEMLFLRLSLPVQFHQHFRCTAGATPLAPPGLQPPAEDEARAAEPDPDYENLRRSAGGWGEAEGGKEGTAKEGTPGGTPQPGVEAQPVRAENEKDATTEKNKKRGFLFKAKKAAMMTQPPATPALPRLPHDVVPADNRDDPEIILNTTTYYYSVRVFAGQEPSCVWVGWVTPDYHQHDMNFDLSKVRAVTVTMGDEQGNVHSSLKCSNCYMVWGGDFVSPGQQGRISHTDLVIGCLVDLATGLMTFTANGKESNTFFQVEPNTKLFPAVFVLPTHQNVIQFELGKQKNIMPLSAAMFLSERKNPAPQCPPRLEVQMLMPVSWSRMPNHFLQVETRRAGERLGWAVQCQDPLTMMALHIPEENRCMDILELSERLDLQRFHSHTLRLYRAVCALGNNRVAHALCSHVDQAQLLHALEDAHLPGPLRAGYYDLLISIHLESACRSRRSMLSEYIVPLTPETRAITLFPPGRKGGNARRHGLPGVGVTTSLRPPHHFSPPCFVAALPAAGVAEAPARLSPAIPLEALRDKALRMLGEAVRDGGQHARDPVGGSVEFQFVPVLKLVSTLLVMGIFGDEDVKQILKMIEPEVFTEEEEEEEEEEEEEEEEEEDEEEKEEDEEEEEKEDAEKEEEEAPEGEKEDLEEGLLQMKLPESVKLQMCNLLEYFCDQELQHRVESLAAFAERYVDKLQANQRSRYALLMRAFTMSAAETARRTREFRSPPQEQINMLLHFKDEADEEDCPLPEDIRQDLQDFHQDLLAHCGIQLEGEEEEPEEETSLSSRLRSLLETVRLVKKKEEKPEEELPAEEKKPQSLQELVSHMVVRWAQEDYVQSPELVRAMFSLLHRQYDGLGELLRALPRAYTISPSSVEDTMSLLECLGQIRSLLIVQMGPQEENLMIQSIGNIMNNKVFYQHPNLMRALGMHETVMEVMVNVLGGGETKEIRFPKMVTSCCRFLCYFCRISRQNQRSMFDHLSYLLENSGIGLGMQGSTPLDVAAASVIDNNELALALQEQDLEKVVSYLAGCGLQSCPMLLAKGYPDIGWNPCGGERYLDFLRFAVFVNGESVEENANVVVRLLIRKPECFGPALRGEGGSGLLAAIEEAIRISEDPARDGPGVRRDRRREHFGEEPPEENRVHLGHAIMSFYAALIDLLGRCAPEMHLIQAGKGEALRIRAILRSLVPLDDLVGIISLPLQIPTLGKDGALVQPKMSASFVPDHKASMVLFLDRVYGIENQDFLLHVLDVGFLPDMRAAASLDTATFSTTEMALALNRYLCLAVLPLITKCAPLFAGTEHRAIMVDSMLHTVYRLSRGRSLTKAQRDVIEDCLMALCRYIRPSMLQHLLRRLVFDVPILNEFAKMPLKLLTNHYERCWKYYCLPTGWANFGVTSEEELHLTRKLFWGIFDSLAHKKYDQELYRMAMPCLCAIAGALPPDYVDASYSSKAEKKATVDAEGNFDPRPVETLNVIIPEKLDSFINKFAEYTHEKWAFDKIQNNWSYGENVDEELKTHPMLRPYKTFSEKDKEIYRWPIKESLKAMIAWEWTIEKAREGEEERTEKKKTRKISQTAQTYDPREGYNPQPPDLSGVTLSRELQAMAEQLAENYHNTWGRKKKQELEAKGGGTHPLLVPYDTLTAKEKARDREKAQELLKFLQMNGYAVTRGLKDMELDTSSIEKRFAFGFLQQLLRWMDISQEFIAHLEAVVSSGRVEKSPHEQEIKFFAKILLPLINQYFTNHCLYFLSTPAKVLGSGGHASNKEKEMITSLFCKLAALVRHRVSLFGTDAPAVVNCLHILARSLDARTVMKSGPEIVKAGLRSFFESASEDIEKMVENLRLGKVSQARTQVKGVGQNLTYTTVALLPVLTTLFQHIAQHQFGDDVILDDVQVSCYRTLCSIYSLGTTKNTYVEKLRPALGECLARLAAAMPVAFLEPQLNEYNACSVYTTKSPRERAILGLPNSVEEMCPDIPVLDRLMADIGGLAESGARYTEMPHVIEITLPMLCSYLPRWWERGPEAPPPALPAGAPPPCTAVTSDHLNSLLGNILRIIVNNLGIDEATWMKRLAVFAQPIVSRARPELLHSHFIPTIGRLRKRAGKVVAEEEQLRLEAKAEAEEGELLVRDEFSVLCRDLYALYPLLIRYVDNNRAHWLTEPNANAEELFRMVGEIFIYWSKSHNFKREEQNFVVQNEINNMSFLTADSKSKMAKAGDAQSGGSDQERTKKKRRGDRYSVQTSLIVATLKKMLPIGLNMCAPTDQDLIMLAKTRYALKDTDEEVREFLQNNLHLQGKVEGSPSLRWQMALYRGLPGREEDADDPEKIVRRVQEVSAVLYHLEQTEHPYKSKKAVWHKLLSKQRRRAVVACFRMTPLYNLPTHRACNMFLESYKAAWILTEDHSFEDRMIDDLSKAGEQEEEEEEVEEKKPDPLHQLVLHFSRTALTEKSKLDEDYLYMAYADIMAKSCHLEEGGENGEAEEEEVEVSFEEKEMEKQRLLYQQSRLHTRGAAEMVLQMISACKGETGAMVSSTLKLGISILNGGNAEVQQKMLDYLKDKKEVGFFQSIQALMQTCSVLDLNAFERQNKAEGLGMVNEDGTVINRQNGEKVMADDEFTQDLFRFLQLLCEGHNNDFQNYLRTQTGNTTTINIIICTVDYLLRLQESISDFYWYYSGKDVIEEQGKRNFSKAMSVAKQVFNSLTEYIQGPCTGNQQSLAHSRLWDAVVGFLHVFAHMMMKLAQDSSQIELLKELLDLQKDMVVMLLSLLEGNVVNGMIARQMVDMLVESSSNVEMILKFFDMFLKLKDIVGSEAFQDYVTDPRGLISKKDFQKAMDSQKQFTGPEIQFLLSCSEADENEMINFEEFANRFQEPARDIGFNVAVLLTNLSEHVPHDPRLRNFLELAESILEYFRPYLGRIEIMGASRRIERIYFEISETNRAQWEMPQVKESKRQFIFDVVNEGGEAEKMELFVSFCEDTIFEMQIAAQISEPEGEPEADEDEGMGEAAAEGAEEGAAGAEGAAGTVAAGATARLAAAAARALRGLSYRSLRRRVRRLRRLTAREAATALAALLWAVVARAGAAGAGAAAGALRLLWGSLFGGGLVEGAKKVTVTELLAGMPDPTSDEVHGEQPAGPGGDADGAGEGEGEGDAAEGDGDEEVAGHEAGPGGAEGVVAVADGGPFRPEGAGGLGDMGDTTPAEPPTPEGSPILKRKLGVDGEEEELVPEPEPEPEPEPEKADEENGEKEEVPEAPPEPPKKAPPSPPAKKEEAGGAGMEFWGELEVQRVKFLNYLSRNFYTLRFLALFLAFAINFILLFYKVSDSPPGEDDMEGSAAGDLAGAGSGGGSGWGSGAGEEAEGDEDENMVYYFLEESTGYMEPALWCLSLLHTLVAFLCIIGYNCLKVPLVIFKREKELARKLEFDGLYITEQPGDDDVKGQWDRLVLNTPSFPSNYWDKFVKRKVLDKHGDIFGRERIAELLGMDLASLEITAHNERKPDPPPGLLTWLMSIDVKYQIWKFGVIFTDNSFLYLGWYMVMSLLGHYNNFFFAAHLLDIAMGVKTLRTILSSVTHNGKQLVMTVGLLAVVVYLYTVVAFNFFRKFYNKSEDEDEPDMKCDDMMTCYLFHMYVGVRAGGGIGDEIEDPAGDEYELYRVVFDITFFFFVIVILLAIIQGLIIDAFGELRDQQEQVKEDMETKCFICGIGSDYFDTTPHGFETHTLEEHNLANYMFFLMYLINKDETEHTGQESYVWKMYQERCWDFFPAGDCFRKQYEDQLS
Assay: 3H-S107 radioligand binding, skeletal SR microsomes untreated or treated with PKA and H2O2
Set-up: species or system rabbit
Details: Untreated microsomes
Method: For PKA-phosphorylated channel experiments, […] of microsomes were in vitro phosphorylated with 40 units of PKA catalytic subunit (SigmaAldrich, Cat #P2645) for 30 min at 30° C. in the presence of the following buffer: 50 mM Tris/PIPES pH 7.0, 8 mM MgCl2, 1 mM MgATP, and 1 mM EGTA. The samples were then spun by centrifuge for 10 min at 100,000×g. […]
Measured endpoint: Kd

Give the measured Kd of COc1ccc2c(c1)CN(C)CCS2 .
150 nM
